I'd be grateful if you could share measured log10 EC50 for these entries.
target: human LPAR1 (Homo sapiens (Human), UniProt Q92633); assay: LPAR1 intracellular calcium mobilization assay (antagonist mode, FLIPR); type: cell-based; details: CHO-K1 EDG2 cells expressing human LPAR1, LPA 18:2 at EC80 (100 nM), test compound 0.5 nM to 10 μM
Sequence (Q92633 whole entry): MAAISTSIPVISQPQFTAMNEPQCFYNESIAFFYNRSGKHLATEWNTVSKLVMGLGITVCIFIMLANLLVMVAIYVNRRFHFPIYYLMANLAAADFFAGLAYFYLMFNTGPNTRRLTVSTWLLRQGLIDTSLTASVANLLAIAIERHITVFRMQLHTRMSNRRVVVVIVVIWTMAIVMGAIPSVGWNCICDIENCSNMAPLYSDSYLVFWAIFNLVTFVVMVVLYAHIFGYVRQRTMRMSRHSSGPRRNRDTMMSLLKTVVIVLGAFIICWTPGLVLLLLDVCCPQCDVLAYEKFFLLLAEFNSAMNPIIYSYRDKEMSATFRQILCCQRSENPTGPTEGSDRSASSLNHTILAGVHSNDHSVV
Note: values are log10 of EC50 expressed in nM.

Batch: log10 EC50 for all items listed.
1. CC(=O)Nc1ccc(-c2nnn(C)c2NC(=O)O[C@H](CF)c2cccc(F)c2)nc1
2. C[C@@H](OC(=O)Nc1c(-c2ccc(NC(=O)c3ccnc(F)c3F)cn2)nnn1C)c1cc(F)cnc1F
3. C[C@@H](OC(=O)Nc1c(-c2ncc(NC(=O)[C@@H]3C[C@H]3C(F)(F)F)cn2)nnn1C)c1cc(F)cnc1Cl
4. C[C@@H](OC(=O)Nc1c(-c2cnc(NC(=O)c3cnc(C(F)F)nc3)cn2)nnn1C)c1cccnc1Cl
5. C[C@@H](OC(=O)Nc1c(-c2ccc(NC(=O)[C@H]3C[C@H](F)C3)cn2)nnn1C)c1cccnc1Cl
6. C[C@@H](OC(=O)Nc1c(-c2ccc(NC(=O)[C@@H]3C[C@H]3F)cn2)nnn1C)c1cc(F)cnc1F
7. C[C@@H](OC(=O)Nc1c(-c2cnc(NC(=O)c3ccc(C(F)F)nc3)cn2)nnn1C)c1cc(F)cnc1F

1: 3.36; 2: 1.86; 3: 1.36; 4: 1.73; 5: 2.04; 6: 1.82; 7: 2.49

###

molecular target: human LPAR1 (Homo sapiens (Human)); assay: LPAR1 intracellular calcium mobilization assay (antagonist mode, FLIPR); type: cell-based; conditions: CHO-K1 EDG2 cells expressing human LPAR1, LPA 18:2 at EC80 (100 nM), test compound 0.5 nM to 10 μM
QUANTITY MEASURED: EC50 (nM)
Numbers only, in nM.

Field: example entries. Status: answers known.
Indicate its recorded EC50; the molecule in question is CO[C@@H]1C[C@H]1C(=O)Nc1ccc(-c2nnn(C)c2NC(=O)O[C@H](C)c2cc(F)cnc2F)nc1 (mixture of isomers)
243

Indicate its recorded EC50; the molecule in question is C[C@@H](OC(=O)Nc1c(-c2ccc(NC(=O)C3CC(O)(C(F)(F)F)C3)cn2)nnn1C)c1cccnc1Cl (stereo partly shown)
602

Indicate its recorded EC50; the molecule in question is C[C@@H](OC(=O)Nc1c(-c2ccc(NC(=O)c3ccc(=O)n(C)c3)cn2)nnn1C)c1cc(F)cnc1F
1660

Indicate its recorded EC50; the molecule in question is C[C@@H](OC(=O)Nc1c(-c2ccc(NC(=O)C3(C#N)CC3C(F)(F)F)cn2)nnn1C)c1cccnc1Cl (stereo partly shown)
33.9

Indicate its recorded EC50; the molecule in question is C[C@@H](OC(=O)Nc1c(-c2ccc(NC(=O)c3ccc(C(F)(F)F)nc3)c(F)n2)nnn1C)c1cccnc1Cl
12.7

Batch: EC50 for all items listed.
1. C[C@@H](OC(=O)Nc1c(-c2ccc(NC(=O)c3ccc(C(F)F)nc3)cn2)nnn1C)c1cc(F)cnc1F
2. C[C@@H](OC(=O)Nc1c(-c2ccc(NC(=O)c3cnc(C4CC4)nc3)cn2)nnn1C)c1cc(F)cnc1F

1: 41.7; 2: 82.4

###

molecular target: human LPAR1 (Homo sapiens (Human), UniProt Q92633); assay: LPAR1 intracellular calcium mobilization assay (antagonist mode, FLIPR); assay type: cell-based; settings: CHO-K1 EDG2 cells expressing human LPAR1, LPA 18:2 at EC80 (100 nM), test compound 0.5 nM to 10 μM
QUANTITY MEASURED: EC50 (nM)
Answers are plain numbers, in nM.

Field: example entries. Status: answers known.
Indicate its recorded EC50; the compound in question is C[C@@H](OC(=O)Nc1c(-c2cc(F)c(NC(=O)c3ccc(C(F)(F)F)nc3)cn2)nnn1C)c1cccnc1Cl [Compound 317]
90.5

Indicate its recorded EC50; the compound in question is C[C@@H](OC(=O)Nc1c(-c2ccc(NC(=O)C3(CN)CCC3)cn2)nnn1C)c1cc(F)cnc1F [Compound 303]
565

Batch: EC50 for all items listed.
1. C[C@@H](OC(=O)Nc1c(-c2ccc(NC(=O)[C@@H]3C[C@@H]3F)cn2)nnn1C)c1cccnc1Cl [Compound 53]
2. C[C@@H](OC(=O)Nc1c(-c2ccc(NC(=O)[C@H]3C[C@@H]3C3CC3)cn2)nnn1C)c1cc(F)cnc1F [Compound 268]
3. C[C@@H](OC(=O)Nc1c(-c2ccc(NC(=O)CC(F)F)cn2)nnn1C)c1cccnc1Cl [Compound 107]

[1460, 7.3, 10000]

Batch: EC50 for all items listed.
1. Cc1cnoc1C(=O)Nc1ccc(-c2nnn(C)c2NC(=O)O[C@H](C)c2cc(F)cnc2F)nc1 [Compound 227]
2. C[C@@H](OC(=O)Nc1c(-c2ccc(NC(=O)CC(C)(C)O)cn2)nnn1C)c1cccnc1Cl [Compound 118]

1. 206
2. 1340

###

target: UniProtKB Q92633; experiment: LPAR1 intracellular calcium mobilization assay (antagonist mode, FLIPR); assay type: cell-based; settings: CHO-K1 EDG2 cells expressing human LPAR1, LPA 18:2 at EC80 (100 nM), test compound 0.5 nM to 10 μM
I'd be grateful if you could share measured EC50 for these entries.
Numbers only, in nM.

Indicate its recorded EC50; the compound in question is C[C@@H](OC(=O)Nc1c(-c2ccc(NC(=O)C3C(F)(F)C34CC4)cn2)nnn1C)c1cccnc1Cl (some centres unmarked) [Compound 199]
65.7

Indicate its recorded EC50; the compound in question is C[C@@H](OC(=O)Nc1c(-c2cnc(NC(=O)c3cnc(C(F)(F)F)nc3)cn2)nnn1C)c1cccnc1F [Compound 325]
185

Batch: EC50 for all items listed.
1. C[C@@H](OC(=O)Nc1c(-c2ccc(NC(=O)c3cc(C(F)(F)F)cnc3F)cn2)nnn1C)c1cc(F)cnc1F [Compound 275]
2. C[C@@H](OC(=O)Nc1c(-c2ccc(NC(=O)C3CCO3)cn2)nnn1C)c1cccnc1Cl (some centres unmarked) [Compound 54]

[241, 7860]

Batch: EC50 for all items listed.
1. C[C@@H](OC(=O)Nc1c(-c2ccc(NC(=O)C3(C#N)C(C#N)C3(C)C)cn2)nnn1C)c1cccnc1Cl (some centres unmarked) [Compound 145]
2. CNC(=O)Nc1ccc(-c2nnn(C)c2NC(=O)O[C@H](C)c2ccccc2Cl)cn1 [Compound 3]
3. C[C@@H](OC(=O)Nc1c(-c2ncc(NC(=O)[C@@]3(C#N)C[C@@H]3C(F)F)cn2)nnn1C)c1cc(F)cnc1Cl [Compound 287]

1. 184
2. 10000
3. 1430

###

molecular target: human LPAR1 (Homo sapiens (Human)); assay: LPAR1 intracellular calcium mobilization assay (antagonist mode, FLIPR); format: cell-based; details: CHO-K1 EDG2 cells expressing human LPAR1, LPA 18:2 at EC80 (100 nM), test compound 0.5 nM to 10 μM
QUANTITY MEASURED: EC50 (nM)
Numbers only, in nM.

Field: example entries. Status: answers known.
Indicate its recorded EC50; the compound in question is C[C@@H](OC(=O)Nc1c(-c2ccc(NC(=O)c3ccc(C(F)(F)F)nc3F)cn2)nnn1C)c1cc(F)cnc1F
18.1

Indicate its recorded EC50; the compound in question is C[C@@H](OC(=O)Nc1c(-c2ccc(NC(=O)C3CC(F)(F)C3)cn2)nnn1C)c1cccnc1Cl
54.6

Indicate its recorded EC50; the compound in question is C[C@@H](OC(=O)Nc1c(-c2ccc(NC(=O)[C@@H]3C[C@H]3c3ccncc3)cn2)nnn1C)c1cc(F)cnc1F (mixture of isomers)
58.1

Now look at this entry.
Indicate its recorded EC50; the compound in question is C[C@@H](OC(=O)Nc1c(-c2ccc(NC(=O)c3cnc4cnn(C)c4c3)cn2)nnn1C)c1cc(F)cnc1F
810

###

I'd be grateful if you could share measured EC50 for these entries.
target: human LPAR1 (Homo sapiens (Human)); assay: LPAR1 intracellular calcium mobilization assay (antagonist mode, FLIPR); assay type: cell-based; conditions: CHO-K1 EDG2 cells expressing human LPAR1, LPA 18:2 at EC80 (100 nM), test compound 0.5 nM to 10 μM
One number for each entry, in nM.

Field: example entries. Status: answers known.
Indicate its recorded EC50; the compound in question is C[C@@H](OC(=O)Nc1c(-c2ccc(NC(=O)C34CC(S(C)(=O)=O)(C3)C4)cn2)nnn1C)c1cc(F)cnc1F
2000

Indicate its recorded EC50; the compound in question is C[C@@H](OC(=O)Nc1c(-c2ccc(NC(=O)[C@H]3C[C@H](C#N)C3)cn2)nnn1C)c1cccnc1Cl
416

Indicate its recorded EC50; the compound in question is Cc1ncc(C(=O)Nc2ccc(-c3nnn(C)c3NC(=O)O[C@H](C)c3cc(F)cnc3F)nc2)cn1
136

---
Indicate its recorded EC50; the compound in question is CC(=O)Nc1ccc(-c2nnn(C)c2NC(=O)O[C@H](C)c2cc(Cl)cnc2F)nc1
1200

This collection of values is drawn from patent US11912686B2.
